ASSAY EXPLANATION: yeast display, Sf9 membrane polyspecificity reagent, FACS + sequencing; frameworks hold sequencing errors
ENDPOINT NAME: polyreactivity (PSR sort gate)

QVQLVESGGGLVQAGGSLRLSCAASGSIFGRYAMGWYRQAPGKERELVAAITYRGGTTYYADSVKGRFTISRDNAKNTVYLQMNSLKPEDTAVYYCAAEGTWYYKYGYFAYYYWGQGTQVTVSS = low polyreactivity
QVQLVESGGGLVQAGGSLRLSCAASGRIFQNNAMGWYRQAPGKERELVAAINIIDGVTYYADSVKGRFTISRDNAKNTVYLQMNSLKPEDTAVYYCNAVRRAHHRKYNYWGQGSQVTVSS = low polyreactivity
QVQLVESGGGIVHEGGSLRLSCAASGSIFFGYAMGWYRLAPGKELELVAAISASGGLTFYADSLKGRFTISRDNAKNTVYLQMNSLKPEDPAVYYCAKRGRSTYGYDYWGQGTQVTVSS = high polyreactivity
QVQLVESGGGLVQAGGSLRLSCAASGITFTYYAMGWYRQAPGKERELVDAITDRGGRTYYSDSVKGRFTISRDNAKNTVYIQMNSLKPEDTAVYYCAAYVPQGYKLYYWGQGTQVTVSS = high polyreactivity
QVQLEESGGGLVQAGGSLRLSCASYGRIFPFYALGWYRQAPRKERELVARISRRGGSTYYADSVKGRFTISRDNAKNNVYLQMNSLKPEDTAVYYCASSQAVYDGWYAKFGYWGQGTQVTVSS = low polyreactivity

All values here come from the nanobody polyreactivity screen of Harvey et al. (2022).
